# Tested on: UISO
# assay-remarks: qHTS assay to identify novel small-molecules to repurpose for Merkel cell carcinoma treatment (AID 1296009); also: nearly all actives have a fitted effect of over 60% in size
# test-context: MCC and control cell lines, CellTiter-Glo viability, 72 h; series mostly up to 46 µM
Records with an inconclusive call do not appear. The source made the active and inactive calls. Calls follow the shape of the dose curve; as a rule, active = well fitted inhibition curve with a large enough effect; inconclusive = small, poorly fitted or top-dose-only effect; inactive = flat fitted curve, though single readings scatter.
Choose the fitting class; nothing outside active, inactive is accepted.

- OC[C@H]1O[C@@H](O[C@@H]2[C@@H](CO)O[C@](O)(CO)[C@H]2O)[C@H](O)[C@@H](O)[C@H]1O: inactive
- O=C(O)Cc1sc(-c2ccccc2)nc1-c1ccc(Cl)cc1: inactive
- CCOC(CN1CCN(CC(C)C(=O)c2ccccc2)CC1)c1ccccc1 (stereo not drawn): inactive
- CNC(=O)Oc1ccc2c(c1)[C@]1(C)CCN(C)[C@@H]1N2C: inactive
- OCC(CO)N[C@H]1C[C@](O)(CO)[C@@H](O)[C@H](O)[C@H]1O: inactive

Ask: What was the test verdict on CC(C)C(=O)c1c(C(C)C)nn2ccccc12 ?
Reply: inactive

Ask: What was the test verdict on Cc1cc2c(cc1S(N)(=O)=O)S(=O)(=O)CCC2 ?
Reply: inactive

Ask: What was the test verdict on CCN(CC)CCNC(=O)c1c(C)[nH]c(/C=C2\C(=O)Nc3ccc(F)cc32)c1C ?
Reply: active

Ask: What was the test verdict on Oc1cccc(O)c1 ?
Reply: inactive

Ask: What was the test verdict on CCC(=O)c1ccc(O)cc1 ?
Reply: inactive

Ask: What was the test verdict on CCN(CC)C(C)CN1c2ccccc2Sc2ccccc21 (stereo not drawn) ?
Reply: inactive

Ask: What was the test verdict on Nc1ccc(S(=O)(=O)NC(=O)c2ccccc2)cc1 ?
Reply: inactive
